Some compounds, each annotated with its measured pest or weed control at 125 g/ha.
- System: Kochia (Kochia scoparia)
- PROTOCOL_DETAILS: Test A preemergence
- Type: in vivo
- CONDITION_LABEL: Bassia scoparia, pre-emergence, 240 h, Preemergence, 125 g ai/ha; 0 to 100 scale (0 no effect, 100 complete control); read-out: Plant response rating, Kochia
- Source text: […]

{"COMPOUND_STRUCTURE_STRING": "CN1C[C@H](c2cccc(C(C)(F)F)c2)[C@@H](C(=O)Nc2ccccc2S(C)(=O)=O)C1=O", "RESULT_UNITS": "%", "pest or weed control at 125 g/ha": 70}
{"COMPOUND_STRUCTURE_STRING": "Cc1ccc([C@H]2CN(C)C(=O)[C@@H]2C(=O)Nc2ccc(F)nc2F)cc1", "RESULT_UNITS": "%", "pest or weed control at 125 g/ha": 80}
{"COMPOUND_STRUCTURE_STRING": "CN1C[C@H](c2ccc(OC(F)F)cc2)[C@@H](C(=O)Nc2ccccc2F)C1=O", "RESULT_UNITS": "%", "pest or weed control at 125 g/ha": 80}
